tested on: Litomosoides carinii; experiment: Antifilarial activity (percent reduction of live Litomosoides carinii at necropsy relative to controls) was evaluated at dose of 100 mg/kg/day administered subcutaneously; format: functional; conditions: route subcutaneous

chemicalSmiles: CN1CCN(C(=O)Nc2nc3cc(C(=O)c4ccccc4)ccc3[nH]2)CC1
resultUnits: %
Reduction: 0

chemicalSmiles: O=C(Nc1ccc(F)cc1)Nc1nc2cc(C(=O)c3ccccc3)ccc2[nH]1
resultUnits: %
Reduction: 66

chemicalSmiles: O=C(Nc1ccc(Cl)c(Cl)c1)Nc1nc2cc(C(=O)c3ccccc3)ccc2[nH]1
resultUnits: %
Reduction: 9

chemicalSmiles: Cc1cccc(NC(=O)Nc2nc3cc(C(=O)c4ccccc4)ccc3[nH]2)c1
resultUnits: %
Reduction: 0

chemicalSmiles: O=C(Nc1ccccc1)Nc1nc2cc(C(=O)c3ccccc3)ccc2[nH]1
resultUnits: %
Reduction: 66

chemicalSmiles: CN(C)C(=O)Nc1nc2cc(C(=O)c3ccccc3)ccc2[nH]1
resultUnits: %
Reduction: 100

chemicalSmiles: O=C(Nc1cccc([N+](=O)[O-])c1)Nc1nc2cc(C(=O)c3ccccc3)ccc2[nH]1
resultUnits: %
Reduction: 32

chemicalSmiles: O=C(Nc1nc2cc(C(=O)c3ccccc3)ccc2[nH]1)Nc1ccccc1[N+](=O)[O-]
resultUnits: %
Reduction: 0

chemicalSmiles: O=C(NCCO)Nc1nc2cc(C(=O)c3ccccc3)ccc2[nH]1
resultUnits: %
Reduction: 20

chemicalSmiles: O=C(Nc1ccc([N+](=O)[O-])cc1)Nc1nc2cc(C(=O)c3ccccc3)ccc2[nH]1
resultUnits: %
Reduction: 0

---

Recorded measurements of Reduction, one per entry
system: Litomosoides carinii; assay: Antifilarial activity (percent reduction of live Litomosoides carinii at necropsy relative to controls) was evaluated at dose of 100 mg/kg/day administered subcutaneously; assay type: functional; details: route subcutaneous

chemicalSmiles: CCCNC(=O)Nc1nc2cc(C(=O)c3ccccc3)ccc2[nH]1
resultUnits: %
Reduction: 0

chemicalSmiles: Cc1ccc(NC(=O)Nc2nc3cc(C(=O)c4ccccc4)ccc3[nH]2)cc1
resultUnits: %
Reduction: 27

chemicalSmiles: O=C(Nc1nc2cc(C(=O)c3ccccc3)ccc2[nH]1)Nc1ccccc1F
resultUnits: %
Reduction: 0

Each recorded value in this set is attributed to ChEMBL document CHEMBL1122690.
